- test target: Mu-type opioid receptor (Homo sapiens, UniProt P35372)
- Sequence (P35372 whole entry): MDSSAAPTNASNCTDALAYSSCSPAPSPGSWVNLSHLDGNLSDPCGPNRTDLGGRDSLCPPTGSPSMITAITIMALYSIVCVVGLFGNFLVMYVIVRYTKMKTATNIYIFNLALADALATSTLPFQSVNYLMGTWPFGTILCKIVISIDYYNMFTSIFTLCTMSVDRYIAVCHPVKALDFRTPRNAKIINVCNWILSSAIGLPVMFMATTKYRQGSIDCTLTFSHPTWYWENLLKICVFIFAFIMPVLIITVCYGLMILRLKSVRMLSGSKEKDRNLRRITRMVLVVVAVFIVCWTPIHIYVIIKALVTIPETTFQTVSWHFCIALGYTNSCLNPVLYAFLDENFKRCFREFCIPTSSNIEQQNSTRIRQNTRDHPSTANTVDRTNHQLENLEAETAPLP
- procedure summary: Competitive Displacement Assay: Membrane protein from CHO (Chinese Hamster Ovarian) cells that stably expressed one type of the cloned human opioid receptor were incubated with 12 different concentrations of the compound in the presence of 0.25 nM [3H]DAMGO, 0.2 nM [3H]naltrindole or 1 nM [3H]U69,593 in a final volume of 1 mL of 50 mM Tris-HCl, pH 7.5 at 25° C. Incubation times of 60 min were used for [3H]DAMGO and [3H]U69,593. Because of a slower association of [3H]naltrindole with the receptor, a 3 h incubation was used with this radioligand. Samples incubated with [3H]naltrindole also contained 10 mM MgCl2 and 0.5 mM phenylmethylsulfonyl fluoride. Nonspecific binding was measured by inclusion of 10 μM naloxone. The binding was terminated by filtering the samples through Schleicher & Schuell No. 32 glass fiber filters using a Brandel 48-well cell harvester. The filters were subsequently washed three times with 3 mL of cold 50 mM Tris-HCl, pH 7.5, and were counted in 2 mL Ecoscint A scintillation fluid. For [3H]naltrindole and [3H]U69,593 binding, the filters were soaked in 0.1% polyethylenimine for at least 60 min before use.
observation type: Ki

Any idea what its Ki is? The compound is COC1(c2ccnc(C(N)=O)c2)C2CCCC1CN(Cc1cc3ccccc3[nH]1)C2 (stereo unspecified)
< 1 nM
